assay: in vitro; conditions: human, hela cells, % viability
Binarize viability at 28.5 h, 10 µM at 90%; below is true (1), at or above is false (0).

Completed entries (count: 3):
MOLECULE	ASSIGNED_CATEGORY
O=C1c2ccccc2C(=O)N1Cc1nc2ccccc2c(=O)n1CCN1CCOCC1 [CBK268472]	false (0)
COc1cccc2[nH]c(C(=O)N3CCOC(c4cccc(-c5c(F)cccc5F)n4)C3)cc12 (centres unmarked) [CBK285948]	false (0)
CC(NC(=O)C1CC(=O)N(Cc2ccccn2)C1)c1ccc(F)cc1 (centres unmarked) [CBK304552]	false (0)

Ask: Dear reviewer, please state whether O=C(C1=C(O)C(=O)N(CCN2CCOCC2)C1c1ccco1)c1cccs1 (centres unmarked) [CBK264506] has viability at 28.5 h, 10 µM strictly beneath 90%.
Result: false (0)

Ask: Dear reviewer, please state whether Cn1c(SCC(=O)NC(c2ccccc2)c2ccccc2)nnc1-c1ccncc1 [CBK266622] has viability at 28.5 h, 10 µM strictly beneath 90%.
Result: false (0)

Ask: Dear reviewer, please state whether O=C(O)COCC(=O)N1CCN(c2ccccc2Cl)CC1 [CBK268155] has viability at 28.5 h, 10 µM strictly beneath 90%.
Result: false (0)

Ask: Dear reviewer, please state whether COC(=O)c1c(NC(=O)CCCC(=O)O)sc(C)c1C [CBK265382] has viability at 28.5 h, 10 µM strictly beneath 90%.
Result: false (0)

Ask: Dear reviewer, please state whether Clc1ncccc1OCCOc1ccccc1 [CBK003888] has viability at 28.5 h, 10 µM strictly beneath 90%.
Result: true (1)

Ask: Dear reviewer, please state whether Cc1ccccc1-n1ccn(S(=O)(=O)c2ccccc2)c1=O [CBK106567] has viability at 28.5 h, 10 µM strictly beneath 90%.
Result: true (1)

Ask: Dear reviewer, please state whether O=C(Cn1nc2n(c1=O)CCCC2)NCc1ccccc1Cl [CBK304647] has viability at 28.5 h, 10 µM strictly beneath 90%.
Result: false (0)

Ask: Dear reviewer, please state whether COc1cccc(OCCO)c1 [CBK000514] has viability at 28.5 h, 10 µM strictly beneath 90%.
Result: false (0)

Ask: Dear reviewer, please state whether COCCn1c(CO)nnc1[C@H]1C[C@@H](NC(=O)c2cc(F)ccc2F)C1 [CBK307032] has viability at 28.5 h, 10 µM strictly beneath 90%.
Result: true (1)
